Catalogue of compounds with associated pKi
assayedTarget: human recombinant sGC enzyme (Homo sapiens (Human), UniProt Q02108+Q02153)
procedureDetails: Size Exclusion Chromatography (SEC) competition binding assay using [3H] Ex-77B as the radioligand
studyConditions: [3H] Ex-77B radioligand, 24 hours at 37° C.
The quantity pKi is defined as the negative base-10 logarithm of the molar concentration.

Field: example entries. Status: answers known.
CC(C)(Cc1csc([C@]2(C)C(=O)Nc3nc(-c4nn(CCC(F)(F)C(F)(F)F)c5cc(Cl)ccc45)nc(N)c32)n1)C(=O)O [Example 92B]    9.76
CC1CCC(Cn2nc(-c3nc(N)c4c(n3)NC(=O)[C@@]4(C)c3nc(CC(C)(C)C(=O)O)cs3)c3ccc(F)cc32)CC1 (single isomer, unassigned) [Example 136AB]    9.66

Moving on to another compound below.
Dear colleague, please send me the reported pKi for CC1CCC(Cn2nc(-c3nc(N)c4c(n3)NC(=O)C4(C)c3nc(CC(C)(C)C(=O)O)co3)c3cccnc32)CC1 (single isomer, unassigned) [Example 126AA] when you can. 10.00

###

assayedTarget: human recombinant sGC enzyme (Homo sapiens (Human), UniProt Q02108+Q02153)
procedureDetails: Size Exclusion Chromatography (SEC) competition binding assay using [3H] Ex-77B as the radioligand
studyConditions: [3H] Ex-77B radioligand, 24 hours at 37° C.
valueKind: Ki
A complete answer gives the number and then names the unit.

Field: example entries. Status: answers known.
C[C@@]1(c2nc(CCC(=O)O)cs2)C(=O)Nc2nc(-c3nn(CCCC(F)(F)F)c4ncccc34)nc(N)c21 [Example 88B]    0.848 nM
Cc1cccc(Cn2nc(-c3nc(N)c4c(n3)NC(=O)[C@@]4(C)c3ccc(CCC(=O)O)cc3)c3ccccc32)c1 [Example 225B]    0.342 nM
CC1(c2cn(CCC(=O)O)nn2)C(=O)Nc2nc(-c3nn(CCC(F)(F)C(F)(F)F)c4ncccc34)nc(N)c21 (stereo not shown) [Example 12B]    2.04 nM

Moving on to another molecule below.
Provide human recombinant sGC enzyme (Homo sapiens (Human), UniProt Q02108+Q02153) Ki reading for CC1(c2ccc(C(=O)O)cc2)C(=O)Nc2nc(-c3nn(Cc4ccccc4F)c4cc(Cl)ccc34)nc(N)c21 (stereo not shown) [Example 209B] . 1.64 nM

###

assayedTarget: sGC α1/β1 heterodimer (Homo sapiens (Human), UniProt Q02108+Q02153)
procedureDetails: Cell-based sGC functional assay (cyclic GMP assay for sGC activator: CASA assay)
Parameters: concentration or dose not given beside the values
studyConditions: activity expressed as percentage of compound A (standard); CHO-K1/sGC cells
Catalogue of molecules with associated % Activation

CC1CCC(Cn2nc(-c3nc(N)c4c(n3)NC(=O)C4(C)c3nc(CC(C)(C)C(=O)O)co3)c3cccnc32)CC1 (single isomer, unassigned) [Example 126AB]    109.2%
CC1CCC(Cn2nc(-c3nc(N)c4c(n3)NC(=O)C4(C)c3nc(CC(C)(C)C(=O)O)co3)c3ccccc32)CC1 (single isomer, unassigned) [Example 231AA]    148.2%
CC(C)(Cc1csc([C@]2(C)C(=O)Nc3nc(-c4nn(CC5CCCCO5)c5ccccc45)nc(N)c32)n1)C(=O)O (single isomer, unassigned) [Example 229AA]    114.6%
CC(Cc1ccc(C2(C)C(=O)Nc3nc(-c4nn(CCC(F)(F)C(F)(F)F)c5cc(Cl)ccc45)nc(N)c32)cc1)C(=O)O (single isomer, unassigned) [Example 34AB]    115%

Moving on to another molecule below.
Dear colleague, please send me the reported % Activation for CC1(N2CCC(CCC(=O)O)C2)C(=O)Nc2nc(-c3nn(Cc4ccccc4F)c4cc(Cl)ccc34)nc(N)c21 (single isomer, unassigned) [Example 261D] when you can. 103.8%

###

assayedTarget: sGC α1/β1 heterodimer (Homo sapiens (Human), UniProt Q02108+Q02153)
procedureDetails: Cell-based sGC functional assay (cyclic GMP assay for sGC activator: CASA assay)
studyConditions: inflection point, 4P fit; CHO-K1/sGC cells; read-out: IP
Catalogue of compounds with associated log10 EC50
Note the log scale: values are log10 of EC50 expressed in nM.

Field: example entries. Status: answers known.
Cc1cccc(Cn2nc(-c3nc(N)c4c(n3)NC(=O)C4(C)c3nc(CC(C)(C)C(=O)O)co3)c3ccc(Cl)cc32)c1 (stereo not shown) [Example 186A]    2.31
CC1CCC(Cn2nc(-c3nc(N)c4c(n3)NC(=O)[C@@]4(C)c3nc(CC(C)(C)C(=O)O)cs3)c3ccc(F)cc32)CC1 (single isomer, unassigned) [Example 136AB]    1.36
CC(C)(Cn1cc(C2(C)C(=O)Nc3nc(-c4nn(Cc5ccccc5F)c5cc(F)ccc45)nc(N)c32)cn1)C(=O)O (stereo not shown) [Example 192A]    3.02
CC1(c2cccc(CCC(=O)O)c2)C(=O)Nc2nc(-c3nn(Cc4ccccc4F)c4ncccc34)nc(N)c21 (stereo not shown) [Example 22A]    2.63
CCCCn1nc(-c2nc(N)c3c(n2)NC(=O)[C@@]3(C)c2ccc(CCC(=O)O)cc2)c2ccc(Cl)cc21 [Example 38B]    2.34

Provide sGC α1/β1 heterodimer (Homo sapiens (Human), UniProt Q02108+Q02153) log10 EC50 reading for CC(C)(Cc1csc([C@]2(C)C(=O)Nc3nc(-c4nn(Cc5c(F)ccc(F)c5F)c5ccccc45)nc(N)c32)n1)C(=O)O [Example 224A] . 1.15

Provide sGC α1/β1 heterodimer (Homo sapiens (Human), UniProt Q02108+Q02153) log10 EC50 reading for CC1(c2ccc(CC(=O)O)cc2)C(=O)Nc2nc(-c3nn(Cc4ccccc4F)c4ncccc34)nc(N)c21 (stereo not shown) [Example 114A] . 3.13

Provide sGC α1/β1 heterodimer (Homo sapiens (Human), UniProt Q02108+Q02153) log10 EC50 reading for CC1(N2CCC(CCC(=O)O)CC2)C(=O)Nc2nc(-c3nn(Cc4ccccc4F)c4cc(Cl)ccc34)nc(N)c21 (stereo not shown) [Example 262B] . 1.43

Provide sGC α1/β1 heterodimer (Homo sapiens (Human), UniProt Q02108+Q02153) log10 EC50 reading for Nc1nc(-c2nn(CCC(F)(F)C(F)(F)F)c3cc(Cl)ccc23)nc2c1C(c1ccc(CCC(=O)O)cc1)(C1CC1)C(=O)N2 (stereo not shown) [Example 158A] . 2.55

Provide sGC α1/β1 heterodimer (Homo sapiens (Human), UniProt Q02108+Q02153) log10 EC50 reading for CC(C)(CCc1coc(C2(C)C(=O)Nc3nc(-c4nn(Cc5ccccc5F)c5ccccc45)nc(N)c32)n1)C(=O)O (stereo not shown) [Example 220B] . 1.91

Provide sGC α1/β1 heterodimer (Homo sapiens (Human), UniProt Q02108+Q02153) log10 EC50 reading for CC(C)(Cc1coc(C2(C)C(=O)Nc3nc(-c4nn(Cc5ccccc5F)c5ccc(F)cc45)nc(N)c32)n1)C(=O)O (stereo not shown) [Example 72A] . 1.62

Provide sGC α1/β1 heterodimer (Homo sapiens (Human), UniProt Q02108+Q02153) log10 EC50 reading for C[C@@]1(c2ccc(CCC(=O)NS(C)(=O)=O)cc2)C(=O)Nc2nc(-c3nn(Cc4ccccc4F)c4cc(Cl)ccc34)nc(N)c21 [Example 259B] . 2.75

Provide sGC α1/β1 heterodimer (Homo sapiens (Human), UniProt Q02108+Q02153) log10 EC50 reading for CC1CCC(Cn2nc(-c3nc(N)c4c(n3)NC(=O)C4(C)c3nc(CC(C)(C)C(=O)O)co3)c3cccnc32)CC1 (single isomer, unassigned) [Example 126AA] . 1.87

###

assayedTarget: sGC α1/β1 heterodimer (Homo sapiens (Human), UniProt Q02108+Q02153)
procedureDetails: Cell-based sGC functional assay (cyclic GMP assay for sGC activator: CASA assay)
studyConditions: CHO-K1, activity expressed as percentage of compound A (standard); CHO-K1/sGC cells; read-out: % Activation
valueKind: Emax (%)
Unit % implied. Number only.

Field: example entries. Status: answers known.
CC(C)(Cc1csc([C@]2(C)C(=O)Nc3nc(-c4nn(Cc5ncccc5F)c5cc(Cl)ccc45)nc(N)c32)n1)C(=O)O [Example 185A]    110
CC(C)(Cn1cc(C2(C)C(=O)Nc3nc(-c4nn(Cc5ccccc5F)c5cc(Cl)ccc45)nc(N)c32)cn1)C(=O)O (stereo not drawn) [Example 171A]    135
CC1(c2ccc(CCCC(=O)O)cc2)C(=O)Nc2nc(-c3nn(Cc4ccccc4F)c4cc(Cl)ccc34)nc(N)c21 (stereo not drawn) [Example 115A]    79

Dear colleague, please send me the reported Emax for CC(C)(Cc1csc([C@]2(C)C(=O)Nc3nc(-c4nn(Cc5c(F)ccc(F)c5F)c5cc(Cl)ccc45)nc(N)c32)n1)C(=O)O [Example 190A] when you can. 120

Dear colleague, please send me the reported Emax for Cc1ccnc(Cn2nc(-c3nc(N)c4c(n3)NC(=O)C4(C)c3nc(CC(C)(C)C(=O)O)co3)c3ccc(Cl)cc32)c1F (stereo not drawn) [Example 215A] when you can. 119

Dear colleague, please send me the reported Emax for C[C@@]1(c2ccc(CCC(=O)O)cc2)C(=O)Nc2nc(-c3nn(Cc4ccccc4F)c4cc(Cl)ccc34)nc(N)c21 [Example 47B] when you can. 88
